Measured values drawn from PubChem BioAssay (Tox21) for this set.

TARGET_SYSTEM: Thyrotropin receptor (Homo sapiens)
ASSAY_TEXT: qHTS assay to identify small molecule antagonists of the thyroid stimulating hormone receptor (TSHR) signaling pathway (AID 1259385); further: nearly all actives have a fitted effect of over 20% in size
RUN_CONDITIONS: TSHR-HEK293 cAMP HTRF, TSH-stimulated antagonist mode; series mostly up to 92.4 µM
Records with an inconclusive call do not appear. Activity calls are given as the source filed them. The call rests on the fitted dose curve.
Classes used: active, inactive

COMPOUND	LABEL_CLASS
CC(C)N(C(=O)SC/C(Cl)=C/Cl)C(C)C	inactive
CC[N+]1(CC)CCC(OC(=O)C(O)(c2ccccc2)c2ccccc2)C1 (stereo unspecified)	inactive
Brc1ccc(Oc2ccc(Br)cc2Br)c(Br)c1	active
CC(=O)[O][Pb]([c]1ccccc1)([c]1ccccc1)[c]1ccccc1	active
CNC(C)(C)Cc1ccccc1	inactive
CCc1cccc(C)c1N(C(=O)CCl)[C@@H](C)COC	inactive

----------
ASSAY_TEXT: qHTS assay to identify small molecule antagonists of the peroxisome proliferator-activated receptor gamma (PPARg) signaling pathway - cell viability counter screen (AID 743194); further: nearly all actives have a fitted effect of over 55% in size
RUN_CONDITIONS: PPARg-bla HEK293H viability, CellTiter-Glo luminescence, 17 h; co-treated with 50 nM rosiglitazone unless noted; series mostly up to 62.6 µM
Results filed as inconclusive are left out. Calls of active or inactive are those of the source. The call rests on the fitted dose curve; in most records, active means well fitted cell-killing curve with a large enough effect in the repeat runs; inconclusive means weak or mixed curves, or effect the other way; inactive means no such curve, though single readings can be large or run the other way.
Outcome codes: y for active, n for inactive

COMPOUND	LABEL_CLASS
O=C(Cl)c1ccccc1F	n
CCC1COC(Cn2cncn2)(c2ccc(Cl)cc2Cl)O1 (stereo not given)	n
CC(Cc1ccc(OCC(=O)O)cc1)NCC(O)c1csc(C(F)(F)F)n1 (stereo not given)	n
Clc1cc(Cl)c(-c2cc(Cl)c(Cl)cc2Cl)cc1Cl	n
Cc1ccn2nc(S(=O)(=O)Nc3c(F)cccc3F)nc2n1	n
CCCCCCC[CH2][Sn]([Cl])([Cl])[CH2]CCCCCCC	y
FC(F)C(F)(F)OCC(Cn1cncn1)c1ccc(Cl)cc1Cl (stereo not given)	n
CCCCn1cc[n+](C)c1 (tested in a mixture with another compound)	n
CC1(C)[C@H](/C=C2\CCSC2=O)[C@@H]1C(=O)OCc1coc(Cc2ccccc2)c1	n
CC(=O)[O][Pb]([c]1ccccc1)([c]1ccccc1)[c]1ccccc1	y
CC(=O)[O-].CC(=O)[O-].CC(=O)[O-].[Cr+3]	n
O=[N+]([O-])c1cc(C(F)(F)F)c(Cl)c([N+](=O)[O-])c1Nc1ncc(C(F)(F)F)cc1Cl	y
O=C(O)CCCCCCNC1c2ccccc2CCc2ccccc21	n
CCN(CC)CCc1c[nH]c2ccccc12	n
O=C(Nc1ccc(F)cc1F)c1cccnc1Oc1cccc(C(F)(F)F)c1	n
[O]=[Cr][O][Cr]=[O]	n
O=C1C(Cl)=C(Cl)C(=O)C(Cl)=C1Cl	y
C1=CCC=C1	n
CN1CCc2cc3c(cc2C1O)OCO3 (stereo not given)	n
O.O.O.O.O.O.O=S(=O)([O-])[O-].[Ni+2]	n
Clc1ccc(C2(Cn3cncn3)OCCO2)c(Cl)c1	n
CCN(CC)Cc1nccn1-c1ccc([N+](=O)[O-])cc1C(=O)c1ccccc1Cl	n
ClCBr	n
CC(C)=CCN1CC[C@@]2(C)c3cc(O)ccc3C[C@@H]1[C@@H]2C	n
CCCCC/C=C\C/C=C\C/C=C\C/C=C\CCCC(=O)NCC(=O)O	n
COC(=O)c1ccccc1S(=O)(=O)NC(=O)Nc1nc(C)nc(OC)n1	n
CCC[CH2][Sn]([CH2]CCC)([CH2]CCC)[CH2]CCC	y
O=C(N[C@H]1N=C(c2ccccc2F)c2cccc3c2N(CC3)C1=O)c1cc2ccccc2[nH]1	n
Cc1cnc2c(C(=O)O)c(Cl)ccc2c1	n
C[C@]12CC[C@H]3[C@@H](CCC4=CC(=O)CC[C@@H]43)[C@@H]1CC[C@@H]2OC(=O)CCc1ccco1	y
CC1CCCC1	n
CCOP(=S)(NC(C)C)Oc1ccccc1C(=O)OC(C)C (stereo not given)	n
C[C@]12Cc3cn[nH]c3C[C@@H]1CC[C@@H]1[C@@H]2CC[C@@]2(C)[C@H]1CC[C@]2(C)O	n
CC(Cc1ccc(O)cc1)NCC(O)c1cc(O)cc(O)c1 (stereo not given)	n
C=CC(=C)C	n
N#Cc1sc2c(=O)c3ccccc3c(=O)c=2sc1C#N	y
CCOC(=O)CCN(SN(C)C(=O)Oc1cccc2c1OC(C)(C)C2)C(C)C	n
COC(=O)c1cc(Oc2ccc(Cl)cc2Cl)ccc1[N+](=O)[O-]	n
O=[N+]([O-])c1cccc2cccc([N+](=O)[O-])c12	n
N#CCCl	n
CSC(=O)c1c(C(F)F)nc(C(F)(F)F)c(C(=O)SC)c1CC(C)C	n
c1ccc2nc(N3CCNCC3)ccc2c1	n
CCOP(=S)(OCC)Oc1cc(C)nc(N(CC)CC)n1	n
CN	n
COc1c2c(cc3c1OCO3)CCN(C)C2	n
CCOC(=O)Cc1ccccc1	n
C=CCBr	n
Nc1nc(N)nc(Cl)n1	n
C#CCC1=C(C)C(OC(=O)C2C(C=C(C)C)C2(C)C)CC1=O (stereo not given)	n
CCCCC(CC)COC(=O)OOC(C)(C)C (stereo not given)	n

----------
ASSAY_TEXT: A CellTox Green Cytotoxicity Assay to monitor cytotoxicity in HEK293 cells - 32 hour (AID 1224881); further: nearly all actives have a fitted effect of over 40% in size
RUN_CONDITIONS: CellTox Green fluorescence; series mostly up to 76.8 µM
Results filed as inconclusive are left out. Activity calls are given as the source filed them. Calls come from the whole dose curve; as a rule, active = well fitted activation curve with a large enough effect in the repeat runs; inconclusive = weak or mixed curves; inactive = flat fitted curve, though single readings scatter.
Classes used: active, inactive

COMPOUND	LABEL_CLASS
COP(=O)(OC)Oc1ccc([N+](=O)[O-])cc1	inactive
CNN	inactive
BrCC(Br)(Br)Br	inactive
O.O.O.O.O.O.O=S(=O)([O-])[O-].[Ni+2]	inactive
NC1CCC(CC2CCC(N)CC2)CC1 (centres undefined)	inactive
COC(=O)N(OC)c1ccccc1COc1ccn(-c2ccc(Cl)cc2)n1	inactive
CC(C)[C@@H](Nc1ccc(C(F)(F)F)cc1Cl)C(=O)OC(C#N)c1cccc(Oc2ccccc2)c1 (some centres undefined)	inactive
CC(C)N(C(=O)CCl)c1ccccc1	inactive
[Cl][Hg][c]1ccccc1	active
COc1nc(C)nc(NC(=O)NS(=O)(=O)c2ccccc2Cl)n1	inactive
CCNS(=O)(=O)C(F)(F)C(F)(F)C(F)(F)C(F)(F)C(F)(F)C(F)(F)C(F)(F)C(F)(F)F	inactive
CC(C)=CC1C(C(=O)OC(C#N)c2cccc(Oc3ccccc3)c2)C1(C)C (centres undefined)	inactive
COC(=O)c1ccccc1S(=O)(=O)NC(=O)Nc1nc(C)nc(OC)n1	inactive
CCCCc1ccccc1	inactive
Cc1ccn2nc(S(=O)(=O)Nc3c(F)cccc3F)nc2n1	inactive
CC[C@H](C)[C@H]1O[C@]2(C=C[C@@H]1C)C[C@@H]1C[C@@H](C/C=C(\C)[C@@H](O[C@H]3C[C@H](OC)[C@@H](O[C@H]4C[C@H](OC)[C@@H](NC)[C@H](C)O4)[C@H](C)O3)[C@@H](C)/C=C/C=C3\CO[C@@H]4[C@H](O)C(C)=C[C@@H](C(=O)O1)[C@]34O)O2	active
[O]=[Cr][O][Cr]=[O]	inactive
N#Cc1ccc(N(CC(N)=O)CC(F)(F)F)cc1C(F)(F)F	inactive
c1ccc2c(c1)cc1ccc3cccc4ccc2c1c34	inactive
Cc1ccc([N+](=O)[O-])[c]2c1[O][Hg]2	active
CCCCCCCc1ccc(O)cc1	active
C=CCBr	inactive
CNC(=O)/C=C(\C)OP(=O)(OC)OC	inactive
OCC(Br)CBr (centres undefined)	inactive

----------
ASSAY_TEXT: A CellTox Green Cytotoxicity Assay to monitor cytotoxicity in HEK293 cells - 24 hour (AID 1224875); further: nearly all actives have a fitted effect of over 45% in size; further: potency means the concentration at half of the fitted maximal effect
RUN_CONDITIONS: CellTox Green fluorescence; series mostly up to 76.8 µM
Inconclusive results are not listed. Activity calls are given as the source filed them. Calls come from the whole dose curve; as a rule, active = well fitted activation curve with a large enough effect in the repeat runs; inconclusive = weak or mixed curves; inactive = flat fitted curve, though single readings scatter.
METRIC_NAME: Potency

COMPOUND	OBSERVED
CN1CCc2cc(Cl)c(O)cc2[C@H]2c3ccccc3CC[C@@H]21	inactive
COc1ccc(Cc2nccc3cc(OC)c(OC)cc23)cc1OC	inactive
C=CCBr	inactive
CCOP(=S)(NC(C)C)Oc1ccccc1C(=O)OC(C)C (centres undefined)	inactive
CC#C[C@]1(O)CC[C@H]2[C@@H]3C[C@H](C)C4=CC(=O)CC[C@]4(C)[C@H]3CC[C@@]21C	inactive
CC[C@H](C)[C@H]1O[C@]2(C=C[C@@H]1C)C[C@@H]1C[C@@H](C/C=C(\C)[C@@H](O[C@H]3C[C@H](OC)[C@@H](O[C@H]4C[C@H](OC)[C@@H](NC)[C@H](C)O4)[C@H](C)O3)[C@@H](C)/C=C/C=C3\CO[C@@H]4[C@H](O)C(C)=C[C@@H](C(=O)O1)[C@]34O)O2	13.8 µM (active)
c1ccc2c(c1)cc1ccc3cccc4ccc2c1c34	inactive
CCCCN(CCCC)C(=S)[S-].CCCCN(CCCC)C(=S)[S-].[Ni+2]	inactive
Cc1ccc([N+](=O)[O-])[c]2c1[O][Hg]2	1.51 µM (active)
